Target: Vasopressin receptor (Rattus norvegicus, UniProt P48974+P30560+Q00788)
Test: Antivasopressor potency in terms of negative logarithm of the effective doses divided by the estimated volume of distribution
Format: functional
PROPERTY: pA2

# SMILES_RECORD, VALUE_MEASURED
rows = [
    ("CCOc1ccc(C[C@H]2NC(=O)CC3(CCCCC3)SSC[C@@H](C(=O)N[C@@H](CCCN=C(N)N)C(=O)NCC(=O)NCCN)NC(=O)[C@H](CC(N)=O)NC(=O)[C@H](C(C)C)NC(=O)[C@H](Cc3ccccc3)NC2=O)cc1", 8.05),
    ("CCOc1ccc(C[C@H]2NC(=O)CC3(CCCCC3)SSC[C@@H](C(=O)N3CCC[C@H]3C(=O)NCCNC(=O)[C@H](N)CCCN=C(N)N)NC(=O)[C@H](CC(N)=O)NC(=O)[C@H](C(C)C)NC(=O)[C@H](Cc3ccccc3)NC2=O)cc1", 8.15),
    ("CCOc1ccc(C[C@H]2NC(=O)CC3(CCCCC3)SSC[C@@H](C(=O)N3CCC[C@H]3C(=O)NCCNC(=O)[C@H](N)CCCCN)NC(=O)[C@H](CC(N)=O)NC(=O)[C@H](C(C)C)NC(=O)[C@H](Cc3ccccc3)NC2=O)cc1", 8.08),
    ("CCOc1ccc(C[C@H]2NC(=O)CC3(CCCCC3)SSC[C@@H](C(=O)NCCNC(=O)[C@@H](N)CCCN=C(N)N)NC(=O)[C@H](CC(N)=O)NC(=O)[C@H](C(C)C)NC(=O)[C@H](Cc3ccccc3)NC2=O)cc1", 7.95),
    ("CC(C)[C@@H]1NC(=O)[C@H](Cc2ccccc2)NC(=O)[C@@H](Cc2ccccc2)NC(=O)CC2(CCCCC2)SSC[C@@H](C(=O)NCCNC(=O)[C@@H](N)CCCN=C(N)N)NC(=O)[C@H](CC(N)=O)NC1=O", 7.64),
    ("CC[C@H](C)[C@@H]1NC(=O)[C@H](Cc2ccccc2)NC(=O)[C@@H](Cc2ccccc2)NC(=O)CC2(CCCCC2)SSC[C@@H](C(=O)N2CCC[C@H]2C(=O)N[C@@H](CCCN=C(N)N)C(=O)NCC(=O)NCCN)NC(=O)[C@H](CC(N)=O)NC1=O", 7.58),
]

* * *

Biological target: Vasopressin receptor (Rattus norvegicus) (UniProt P48974+P30560+Q00788)
Assay: Antiantidiuretic potency in terms of measuring changes in urine flow in water-loaded rats under ethanol anesthesia
Type: functional
Numbered stars: 1 amine (or outer) side, 2 acyl side, 3 side chain; on linkers, the order of the positions; unused ones are H or OH. Bridge positions count the residues as written; N and C are the ends. Square brackets hold non-standard residues; d marks the D form. Peptide text beside a SMILES is read from it. X1 = O=C(CC1(S[*:2])CCCCC1)[*:1]
PROPERTY: ED (nM/kg)

# COMPOUND, VALUE_MEASURED
rows = [
    ("CCOc1ccc(C[C@H]2NC(=O)CC3(CCCCC3)SSC[C@@H](C(=O)N3CCC[C@H]3C(=O)N[C@@H](CCCN=C(N)N)C(=O)NCC(N)=O)NC(=O)[C@H](CC(N)=O)NC(=O)[C@H](C(C)C)NC(=O)[C@H](Cc3ccccc3)NC2=O)cc1 ([dY](Et)FVNCPRG-NH2; linker N-5 via X1)", 1.1),
]

(a) CCOc1ccc(C[C@H]2NC(=O)CC3(CCCCC3)SSC[C@H](C(=O)NCCN)NC(=O)[C@@H](CC(N)=O)NC(=O)[C@H](C(C)C)NC(=O)[C@@H](Cc3ccccc3)NC2=O)cc1
(b) CCOc1ccc(C[C@H]2NC(=O)CC3(CCCCC3)SSC[C@H](C(=O)N[C@H](CCCN=C(N)N)C(=O)NCC(=O)NCCN)NC(=O)[C@@H](CC(N)=O)NC(=O)[C@H](C(C)C)NC(=O)[C@@H](Cc3ccccc3)NC2=O)cc1
Lab note: record which item had the higher ED, a or b . # reply format: chosen label
a
(a: 5.7 nM/kg, b: 0.65 nM/kg)

* * *

Target: Vasopressin receptor (Rattus norvegicus) (UniProt P48974+P30560+Q00788)
Experiment: Antivasopressor potency in terms of blood pressure response in rats anesthetized with urethane and pretreated with phenoxybenzamine
Assay type: functional
Quick list: ED per entry.
Quick note: give the figure in nM/kg, leave out the unit.

# COMPOUND, VALUE_MEASURED
data = [
    ("CCOc1ccc(C[C@H]2NC(=O)CC3(CCCCC3)SSC[C@H](C(=O)NCCNC(=O)[C@@H](CCCN=C(N)N)NC(=O)[C@H](N)CCCN=C(N)N)NC(=O)[C@@H](CC(N)=O)NC(=O)[C@H](C(C)C)NC(=O)[C@@H](Cc3ccccc3)NC2=O)cc1", 0.86),
]

Enter reported ED observed with Vasopressin receptor (Rattus norvegicus) (UniProt P48974+P30560+Q00788) for CC(C)C[C@H]1NC(=O)CC2(CCCCC2)SSC[C@H](C(=O)NCCNC(=O)C(N)CCCN=C(N)N)NC(=O)[C@@H](CC(N)=O)NC(=O)[C@H](C(C)C)NC(=O)[C@@H](Cc2ccccc2)NC1=O (some centres not stated)
58

* * *

Molecular target: Vasopressin receptor (Rattus norvegicus) (UniProt P48974+P30560+Q00788)
Test: Antivasopressor potency in terms of blood pressure response in rats anesthetized with urethane and pretreated with phenoxybenzamine
Type: functional
Numbered stars: 1 amine (or outer) side, 2 acyl side, 3 side chain; on linkers, the order of the positions; unused ones are H or OH. Bridge positions count the residues as written; N and C are the ends. Square brackets hold non-standard residues; d marks the D form. Peptide text beside a SMILES is read from it. X1 = O=C(CC1(S[*:2])CCCCC1)[*:1]
Listed here: items and their measured ED.
# unit: nM/kg | format: bare number

Consider the worked cases shown below.
# COMPOUND, ED [nM/kg]
rows = [
    ("CCOc1ccc(C[C@H]2NC(=O)CC3(CCCCC3)SSC[C@H](C(=O)N3CCCC3C(=O)N[C@H](CCCN=C(N)N)C(=O)NCCNC(=O)[C@H](N)CCCN=C(N)N)NC(=O)[C@@H](CC(N)=O)NC(=O)[C@H](C(C)C)NC(=O)[C@@H](Cc3ccccc3)NC2=O)cc1 (some centres undefined)", 0.51),
    ("CC(C)[C@@H]1NC(=O)[C@@H](Cc2ccccc2)NC(=O)[C@@H](Cc2ccccc2)NC(=O)CC2(CCCCC2)SSC[C@H](C(=O)NCCNC(=O)C(N)CCCN=C(N)N)NC(=O)[C@@H](CC(N)=O)NC1=O (some centres undefined)", 1.7),
    ("CC[C@H](C)[C@@H]1NC(=O)[C@H](Cc2ccccc2)NC(=O)[C@@H](Cc2ccccc2)NC(=O)CC2(CCCCC2)SSC[C@@H](C(=O)N2CCC[C@H]2C(=O)N[C@@H](CCCN=C(N)N)C(=O)NCC(N)=O)NC(=O)[C@H](CC(N)=O)NC1=O ([dF]FINCPRG-NH2; linker N-5 via X1)", 0.99),
    ("CCOc1ccc(C[C@H]2NC(=O)CC3(CCCCC3)SSC[C@H](C(=O)NCCNC(=O)[C@H](N)CCCN)NC(=O)[C@@H](CC(N)=O)NC(=O)[C@H](C(C)C)NC(=O)[C@@H](Cc3ccccc3)NC2=O)cc1", 1.06),
    ("CCOc1ccc(C[C@H]2NC(=O)CC3(CCCCC3)SSC[C@H](C(=O)N[C@H](CCCN=C(N)N)C(=O)NCC(=O)NCCNC(=O)[C@H](N)CCCN=C(N)N)NC(=O)[C@@H](CC(N)=O)NC(=O)[C@H](C(C)C)NC(=O)[C@@H](Cc3ccccc3)NC2=O)cc1", 0.73),
]

Param item = CC[C@H](C)[C@@H]1NC(=O)[C@H](Cc2ccccc2)NC(=O)[C@@H](Cc2ccccc2)NC(=O)CC2(CCCCC2)SSC[C@@H](C(=O)N2CCC[C@H]2C(=O)N[C@@H](CCCN=C(N)N)C(=O)NCCN)NC(=O)[C@H](CC(N)=O)NC1=O ; retrieve measured ED.
0.88

Suppose we examine the compound CCOc1ccc(C[C@H]2NC(=O)CC3(CCCCC3)SSC[C@@H](C(=O)N3CCC[C@H]3C(=O)NCCN)NC(=O)[C@H](CC(N)=O)NC(=O)[C@H](C(C)C)NC(=O)[C@H](Cc3ccccc3)NC2=O)cc1 ; what ED value has been reported?
0.75

Which ED is listed for CCOc1ccc(C[C@H]2NC(=O)CC3(CCCCC3)SSC[C@@H](C(=O)N3CCC[C@H]3C(=O)N[C@@H](CCCN=C(N)N)C(=O)NCC(N)=O)NC(=O)[C@H](CC(N)=O)NC(=O)[C@H](C(C)C)NC(=O)[C@H](Cc3ccccc3)NC2=O)cc1 ([dY](Et)FVNCPRG-NH2; linker N-5 via X1) ?
0.45

Record request: ED value, item CCOc1ccc(C[C@H]2NC(=O)CC3(CCCCC3)SSC[C@H](C(=O)N[C@H](CCCN=C(N)N)C(=O)NCC(N)=O)NC(=O)[C@@H](CC(N)=O)NC(=O)[C@H](C(C)C)NC(=O)[C@@H](Cc3ccccc3)NC2=O)cc1
0.56
